Collected from the literature: IC50 of various molecules toward POLRMT (Homo sapiens (Human), UniProt O00411).
metric: IC50 (µM)

These recorded examples may help you get a feel for the data.
[[record]]
molecule = "CNC(=O)CN(C)c1ccc2c(-c3ccccc3C)cc(=O)oc2n1"
readoutnumber = 1

[[record]]
molecule = "Cc1ccccc1-c1cc(=O)oc2nc(N(C)C(C)C(N)=O)ccc12 (single isomer, unassigned)"
readoutnumber = 1

[[record]]
molecule = "COC[C@@H](Oc1ccc2c(-c3ccccc3C)cc(=O)oc2c1)C(N)=O"
readoutnumber = 0.7

[[record]]
molecule = "Cc1ccccc1-c1cc(=O)oc2nc(N(C)CC(=O)O)ccc12"
readoutnumber = 1

[[record]]
molecule = "Cc1ccccc1-c1cc(=O)oc2cc(OC(CO)C(=O)N(C)C)ccc12 (single isomer, unassigned)"
readoutnumber = 32

[[record]]
molecule = "COC(=O)CN(C)c1ccc2c(-c3ccccc3C)cc(=O)oc2n1"
readoutnumber = 0.2


[a] Cc1ccccc1-c1cc(=O)oc2cc(NCc3ccn(C)n3)ccc12
[b] COC(=O)CN(C)c1ccc2c(-c3ccccc3C)cc(=O)oc2c1
Name the one with the greater IC50 value, either a or b as given. Reply with the label of the item you choose.
a

* * *

pIC50: −log10 of the molar value.
Collected from the literature: pIC50 of various molecules toward POLRMT (Homo sapiens (Human)).
metric: pIC50

These recorded examples may help you get a feel for the data.
[[record]]
molecule = "Cc1ccccc1-c1cc(=O)oc2cc(N(C)[C@@H](C)CC(=O)O)ccc12"
system = "POLRMT (Homo sapiens (Human))"
metric = "pIC50"
readoutnumber = 6.70

[[record]]
molecule = "C[C@@H](Nc1ccc2c(-c3ccc(F)cc3Cl)cc(=O)oc2c1)C(=O)N1CCOCC1"
system = "POLRMT (Homo sapiens (Human))"
metric = "pIC50"
readoutnumber = 6.40

[[record]]
molecule = "CCCOc1ccc2c(-c3ccccc3OC)cc(=O)oc2c1"
system = "POLRMT (Homo sapiens (Human))"
metric = "pIC50"
readoutnumber = 5.22


[P] Cc1ccccc1-c1cc(=O)oc2cc(OC3CCCOC3)ccc12 (single isomer, unassigned)
[Q] Cc1ccccc1-c1cc(=O)oc2cc(N(C)Cc3ccn[nH]3)ccc12
Which gives the smaller pIC50 number: P or Q ? Reply with the label of the item you choose.
P
(P: 6.00, Q: 7.30)

[P] COC(=O)[C@H](C)N(C)c1ccc2c(-c3ccc(F)cc3Cl)cc(=O)oc2n1
[Q] Cc1ccccc1-c1cc(=O)oc2cc(C(=O)N3CC(C)(CO)C3)ccc12
Name the one with the greater pIC50 value, either P or Q as given. Reply with the label of the item you choose.
P
(P: 6.00, Q: 5.52)

[1] Cc1ccccc1-c1cc(=O)oc2nc(N(C)CC(=O)NCC(=O)O)ccc12
[2] Cc1ccccc1-c1cc(=O)oc2cc(NCC(=O)N3CCCCC3)ccc12
Which gives the smaller pIC50 number: 1 or 2 ? Reply with the label of the item you choose.
1
(1: 5.22, 2: 5.52)

* * *

Collected from the literature: IC50 of various compounds toward POLRMT (Homo sapiens (Human), UniProt O00411).
metric: IC50 (µM)

These recorded examples may help you get a feel for the data.
[[record]]
compound = "Cc1ccccc1-c1cc(=O)oc2cc(CC(C)C(=O)N3CCC(C(=O)O)CC3)ccc12 (single isomer, unassigned)"
valueunit = "µM"
readoutnumber = 4

[[record]]
compound = "Cc1ccccc1-c1cc(=O)oc2nc(N(C)CCC(N)=O)ccc12"
valueunit = "µM"
readoutnumber = 3


[1] C[C@H](C(=O)N1CCOCC1)N(C)c1ccc2c(-c3ccc(F)cc3Cl)cc(=O)oc2c1
[2] O=c1cc(-c2ccc(F)cc2Cl)c2ccc(O)cc2o1
Name the one with the greater IC50 value, either 1 or 2 as given. Reply with the label of the item you choose.
2
(2: 3 µM, 1: 0.07 µM)
